Biological target: EP300 (Homo sapiens)
Sequence (Q09472 whole entry, species assumed): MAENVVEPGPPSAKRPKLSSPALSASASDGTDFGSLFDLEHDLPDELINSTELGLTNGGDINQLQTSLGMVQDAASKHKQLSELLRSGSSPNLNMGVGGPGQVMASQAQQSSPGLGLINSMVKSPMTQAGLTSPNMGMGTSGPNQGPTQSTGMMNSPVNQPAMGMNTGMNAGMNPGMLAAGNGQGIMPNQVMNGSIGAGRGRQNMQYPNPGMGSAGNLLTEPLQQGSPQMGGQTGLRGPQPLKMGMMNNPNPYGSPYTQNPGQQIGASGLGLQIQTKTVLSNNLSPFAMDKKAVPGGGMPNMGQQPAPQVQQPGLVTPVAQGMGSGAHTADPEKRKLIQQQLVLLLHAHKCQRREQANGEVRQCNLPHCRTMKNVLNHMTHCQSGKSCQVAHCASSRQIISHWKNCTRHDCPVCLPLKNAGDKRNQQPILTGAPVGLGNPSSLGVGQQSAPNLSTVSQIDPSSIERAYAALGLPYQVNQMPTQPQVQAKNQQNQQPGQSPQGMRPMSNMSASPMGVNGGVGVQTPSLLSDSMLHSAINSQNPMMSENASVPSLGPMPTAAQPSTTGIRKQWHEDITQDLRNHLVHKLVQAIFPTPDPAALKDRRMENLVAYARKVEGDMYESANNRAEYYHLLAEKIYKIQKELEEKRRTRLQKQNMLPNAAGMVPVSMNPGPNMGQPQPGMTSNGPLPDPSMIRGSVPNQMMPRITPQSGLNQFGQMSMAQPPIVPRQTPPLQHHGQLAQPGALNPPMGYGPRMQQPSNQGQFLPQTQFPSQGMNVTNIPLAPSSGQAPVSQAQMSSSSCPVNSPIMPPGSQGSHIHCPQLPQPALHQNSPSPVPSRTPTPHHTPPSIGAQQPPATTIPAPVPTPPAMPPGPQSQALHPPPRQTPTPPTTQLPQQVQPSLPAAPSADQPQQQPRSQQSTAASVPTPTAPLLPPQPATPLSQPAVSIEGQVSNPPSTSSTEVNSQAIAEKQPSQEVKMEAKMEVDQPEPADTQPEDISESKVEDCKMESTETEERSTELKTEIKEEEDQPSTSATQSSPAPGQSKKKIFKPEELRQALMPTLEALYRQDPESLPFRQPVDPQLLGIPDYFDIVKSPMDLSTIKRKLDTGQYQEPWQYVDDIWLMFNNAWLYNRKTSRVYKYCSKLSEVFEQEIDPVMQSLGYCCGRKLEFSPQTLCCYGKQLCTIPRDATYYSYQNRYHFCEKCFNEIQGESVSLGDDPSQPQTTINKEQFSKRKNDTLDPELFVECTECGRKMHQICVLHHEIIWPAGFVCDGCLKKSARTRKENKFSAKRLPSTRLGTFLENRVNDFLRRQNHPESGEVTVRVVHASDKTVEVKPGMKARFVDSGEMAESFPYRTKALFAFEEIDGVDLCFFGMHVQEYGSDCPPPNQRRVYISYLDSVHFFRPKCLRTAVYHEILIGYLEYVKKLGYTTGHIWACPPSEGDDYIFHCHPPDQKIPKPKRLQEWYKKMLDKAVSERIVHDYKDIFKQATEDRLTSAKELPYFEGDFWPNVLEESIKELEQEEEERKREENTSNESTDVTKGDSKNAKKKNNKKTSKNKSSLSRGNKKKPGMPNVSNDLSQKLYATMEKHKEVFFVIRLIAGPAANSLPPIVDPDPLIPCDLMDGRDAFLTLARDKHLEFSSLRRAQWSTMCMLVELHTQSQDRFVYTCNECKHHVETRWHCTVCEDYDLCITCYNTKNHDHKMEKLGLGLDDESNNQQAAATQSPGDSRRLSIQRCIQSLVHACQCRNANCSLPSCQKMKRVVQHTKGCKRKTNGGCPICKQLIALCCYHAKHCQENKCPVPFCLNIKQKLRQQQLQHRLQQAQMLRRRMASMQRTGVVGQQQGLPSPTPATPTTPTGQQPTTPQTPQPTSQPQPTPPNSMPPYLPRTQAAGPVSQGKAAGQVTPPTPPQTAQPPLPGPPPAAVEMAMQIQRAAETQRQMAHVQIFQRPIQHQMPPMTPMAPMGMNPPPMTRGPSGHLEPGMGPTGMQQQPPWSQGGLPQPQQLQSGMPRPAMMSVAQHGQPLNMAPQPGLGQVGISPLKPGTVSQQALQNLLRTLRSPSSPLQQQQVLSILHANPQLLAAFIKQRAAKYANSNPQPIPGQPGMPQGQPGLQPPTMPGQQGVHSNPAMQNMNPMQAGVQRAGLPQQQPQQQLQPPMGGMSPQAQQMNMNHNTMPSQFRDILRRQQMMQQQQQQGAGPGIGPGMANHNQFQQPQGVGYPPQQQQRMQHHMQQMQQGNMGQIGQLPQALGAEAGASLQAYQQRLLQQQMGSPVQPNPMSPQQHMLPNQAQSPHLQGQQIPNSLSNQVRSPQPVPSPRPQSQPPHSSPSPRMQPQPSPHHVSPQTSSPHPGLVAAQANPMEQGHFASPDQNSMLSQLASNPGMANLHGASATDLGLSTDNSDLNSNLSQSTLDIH
Assay: Histone acetyltransferase (HAT) activity assay;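 also: selectivity screen of bromodomain probe compounds against histone acetyltransferases, with enzyme activity given in percent for compounds tested at 1 and 10 µM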
Type: biochemical
Details: 10µM
Assay Metric: HATs Activity (%)

Known results for compounds:
* Cc1cc(=O)n(C)c2cc(N3C(=O)CC[C@H](NS(=O)(=O)CC(C)C)[C@H]3c3ccc(Cl)cc3)ccc12 [LP-99] | 98%
* CCn1cc(-c2cccc(C(F)(F)F)c2)c2sc(C(=N)NC3CCS(=O)(=O)CC3)cc2c1=O [I-BRD9] | 99%
* COc1ccccc1C(=O)Nc1cc2c(cc1N1CCNC[C@H]1C)n(C)c(=O)n2C [GSK6853] | 104%
* COc1cc2c(cc1NS(=O)(=O)c1ccc(Br)cc1C)n(C)c(=O)n2C [OF-1] | 103%
* COc1ccccc1S(=O)(=O)Nc1ccc2c(c1)CN(C)C(=O)N2 [PFI-1] | 100%

Kindly consider the entry below.
## Input Which HATs Activity (%) value is on record for COc1cc(C#N)ccc1S(=O)(=O)Nc1ccc2c(c1)cc(C)c(=O)n2C [NIC57] ?
## Output 93%
